System: A2780/CP70 cells
Protocol notes: MTT cell proliferation assay, A2780/CP70 ovarian cancer cells
Assay type: cell-based, human
Test context: A2780/CP70, cisplatin alone, 24 h; read-out: concentration of cisplatin needed to inhibit 50% of cell proliferation (IC50)
pIC50: −log10 of the molar value.

[
  {
    "Compound": "N.N.[Cl][Pt][Cl] [cisplatin]",
    "pIC50": "~4.70"
  }
]
